Record form. Attribute: koff. Fill in for each entry.
experimental.target: T1, recombinant human GPC3 (human, UniProt P51654 25-559, limits assumed)
T1 construct: also called hGPC3
test.protocol: SPR (Biacore), antibody as ligand, recombinant human GPC3 as analyte, 1:1 Langmuir model
Give just the number in s⁻¹; leave the unit off.

Please report koff for the following binder: LAb19308 (antibody, V domains shown, Mouse monoclonal antibody purified from hybridoma supernatant) VH: EVQLVESGGGLVKPGGSLKLSCAASGFAFITYGMSWVRQTPEKRLEWVAYISSGGANTYYPDSVKGRFTISRDNAKNTLYLQMSSLKSEDTAMYYCASLSTLVRGWFAYWGQGTLVTVSA VL: DVVMTQTPLSLPVSLGDQASISCRSSQSLVHSNGNTYLHWYLQKPGQSPKLLIYKVSNRFSGVPDRFSGSGSGTDFTLKISRVEAEDLGVYFCSQSTHVPYTFGGGTKLEIK
0.00102

Please report koff for the following binder: LAb19306 (antibody, V domains shown, Mouse monoclonal antibody purified from hybridoma supernatant) VH: EVQLVESGGGLVKPGGSLKLSCAASGFAFSTYDMSWVRQTPERRLEWVAYISSGGATTYYPDSVKGRFTISRDNAKNTLYLQMSSLKSEDTAMYYCARLSLMIRGWFAYWGQGTLVTVSA VL: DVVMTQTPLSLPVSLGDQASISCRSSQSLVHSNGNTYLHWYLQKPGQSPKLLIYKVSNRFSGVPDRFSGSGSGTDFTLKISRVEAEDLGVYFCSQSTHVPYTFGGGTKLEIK
0.00077

Please report koff for the following binder: LAb19310 (antibody, V domains shown, Mouse monoclonal antibody purified from hybridoma supernatant) VH: EVQLQQSGPELVKPGPSLKISCKASGYSFTVSPMTWVKQSHGKNLEWIGLIHPYNGDTTYNQKFKGKATLTVDKSSSTAYMELLSLTSEDSAVYYCARWGNYYPYAMDYWGQGTSVTVSS VL: DIVMTQSQKFMSTSVGDRVSITCKASQNVRSTVAWYQQKPGQSPKALIYLTSNRHTGVPDRFTGSGSGTDFTLTISNVQSEDLADYFCLQHWNYPYTFGGGTKLEIK
0.000465

Please report koff for the following binder: LAb19305 (antibody, V domains shown, Mouse monoclonal antibody purified from hybridoma supernatant) VH: QVQLQQSGAELVRPGASVTLSCKASGYTFTAYEMHWVKQTPVYGLEWIGGIDPETGNTAYSQNFKGKATLTADKSSSTAYMEVRSLTSEDSAVYYCSRYYSFAYWGQGTLVTVSA VL: DVLMTQTPLSLPVSLGDQASISCRSSQTIVHSNGNTYLEWYLQKPGQSPKLLIYKVSNRFSGVPDRFSGSGSGTDFTLKISRVEAEDLGVYYCFQVSHVPYTFGGGTKLEIK
0.00013
